assay: qHTS for Inhibitors of Inflammasome Signaling: IL-1-beta AlphaLISA Primary Screen; conditions: THP-1 LPS/ATP IL-1B secretion, 16 h; at 57.5 µM, hits give low values; further: on the % scale 0 is the no-effect control and ±100 the full control effect
Among all 360,000 compounds or so, about 17,000 (4.7%) were called active. Inconclusive results (about 5%) are left out. What follows is part of a selection rich in actives, with near analogues and random picks from the rest.
observation.type: activity change

Cc1ccc(C)c(S(=O)(=O)Nc2cc(C)on2)c1: -7.66% (inactive)
O=C(NCc1ccccc1)C1CNCC(C(=O)NCc2ccccc2)C1 (stereo unspecified): -14.4% (inactive)
CN(Cc1ccccc1)CC(O)COc1ccc(CNCc2cc3ccccc3s2)cc1 (stereo unspecified): -52.3% (active)
O=C(/C=C/c1ccccc1)c1ccccc1O: -85.5% (active)
Cc1ccc(C2=NN(C(=O)CSc3nc(N)cc(N)n3)C(c3ccco3)C2)cc1 (stereo unspecified): -23.3% (inactive)
O=C(NNC(=O)c1ccccc1O)c1ccccc1O: 67.1% (inactive)

###

Assay: qHTS for Inhibitors of Inflammasome Signaling: IL-1-beta AlphaLISA Primary Screen
Conditions: THP-1 LPS/ATP IL-1B secretion, 16 h; at 57.5 µM
Description: Inflammasomes are a set of intracellular multi-protein complexes that enable autocatalytic activation of inflammatory caspases and drive the innate immune response to counter harmful agents. […] A qHTS assay, based on AlphaLISA technology, was developed to screen the Molecular Libraries Small Molecule Repository (MLSMR) to look for novel inflammasome inhibitors. The assay detects IL-1B using AlphaLISA anti-IL-1B acceptor and donor beads. […]
In all, about 360,000 compounds went through this assay and about 17,000 (4.7%) were called active. Inconclusive results (about 5%) are left out. No stated cut-off is given here; in the data, active means activity change below about -50%; inconclusive means mostly about -30% to -49%; inactive means weaker than that. For the sample, actives were picked, then their nearest neighbours and some compounds at random.
Classes used: TRUE for active, FALSE for inactive

CN1CCN(C(=O)c2ccc(-c3cc4nc(NCc5cccnc5)n(C)c(=O)c4s3)cc2)CC1: FALSE
COC(=O)c1ccc(CN2C(=O)C(Cc3ccccc3)ON=C2c2ncccc2C)o1 (stereo not given): FALSE
CCN(CC)CCOc1ccc2c(c1)C(=NNC(=O)c1ccccn1)c1cc(OCCN(CC)CC)ccc1-2: TRUE
NC(=O)c1ccc(N2CCCC2)nc1: FALSE
COC(=O)C1(C(=O)OC)C[C@H](c2ccccc2)N(Cc2ccccc2OC)[C@@H]1c1ccccc1: FALSE
O=C(OC(C(=O)NC1CCCC1)c1ccc(F)cc1)c1ccno1 (stereo not given): FALSE
CC1(C(=O)NCC2CCOCC2)Cc2c(-c3cccc(C(N)=O)c3)ccnc2O1 (stereo not given): FALSE
COc1ccc(-c2cc(C3CCN(c4ncccc4[N+](=O)[O-])CC3)[nH]n2)cc1: FALSE
Cc1ccc(NS(=O)(=O)c2cc3c(cc2C)NC(=O)CO3)cc1: FALSE
CCOC(=O)c1cccc(NC(=O)CCn2nnc3ccccc32)c1: FALSE
Fc1ccc2[nH]c3c(N4CCSCC4)ncnc3c2c1: TRUE
COc1ccccc1CN1CCN(C(c2ccccc2)c2ccccc2)CC1: FALSE
C/C=C/c1ccc(OCCCCN2CCC(C)CC2)c(OC)c1: TRUE
CCCCn1c(N)c(N(CC(C)C)C(=O)c2ccc(Br)o2)c(=O)[nH]c1=O: FALSE
CC(=O)N1CC(C)c2scc(C)[n+]2-c2ccccc21 (stereo not given): TRUE
Cc1ccc(-c2nc(-c3ccncc3)no2)c(C)c1: FALSE
Fc1ccc2[nH]c3c(N4CCN(Cc5ccc6c(c5)OCO6)CC4)ncnc3c2c1: TRUE
CCOC(=O)c1cccc(NC(=O)c2ccc(F)cc2F)c1: FALSE
COc1ccc(OCCCCN2CCC(C)CC2)cc1: FALSE
COc1ccc(CCNC2=C(Cl)C(=O)N(Cc3ccccc3)C2=O)cc1OC: TRUE
CCOc1ccc(NC(=O)CN(C)C(=O)c2c(C)noc2C)cc1OCC: FALSE
CCC(C(=O)OCCN(CC)CC)c1ccccc1 (stereo not given): FALSE
CCCCCc1c(C)nc(N2CCN(Cc3ccc4c(c3)OCO4)CC2)[nH]c1=O: FALSE
CCCCn1c(N)c(N(CC(C)C)C(=O)c2ccc(-n3c(C)ccc3C)cc2)c(=O)[nH]c1=O: TRUE
Clc1ccc(CN2CCN(/N=C/c3cccnc3)CC2)cc1: FALSE
O=C1/C(=C\c2cccnc2)CN(Cc2ccccc2)C/C1=C\c1cccnc1: TRUE
CC(=NNC(N)=O)C1CC2CCC1CC2 (stereo not given): FALSE
C/C=C/c1ccc(OCC(O)CN2CCCCCCC2)c(OC)c1 (stereo not given): TRUE
COc1ccc(NC(=O)c2cccc(Cl)c2)c[n+]1[O-]: FALSE
CC(C)(C)CC(C)(C)NCC(O)COCCOc1ccc(Br)cc1 (stereo not given): TRUE
Cc1cc(Cl)ccc1OCc1nc(-c2ccncc2)no1: TRUE
COc1ccc(CCN=C2SCC(=O)N2Cc2ccccc2)cc1OC: FALSE
O=C(O)C(=Cc1ccccc1[N+](=O)[O-])c1ccccc1: FALSE
COCCNC(=O)CSc1nc2sccc2c(=O)n1-c1ccccc1: FALSE
O=C(Nc1ccc(F)cc1)C(=O)c1cn(CC(=O)N2CCOCC2)c2ccccc12: FALSE
C/C=C/c1ccc(OCCOc2ccc(C=O)cc2OC)c(OC)c1: FALSE
CCOC(=O)c1nnn(CC(=O)Nc2cccc(F)c2)c1C(=O)OCC: TRUE
CCOc1cc2ccccc2cc1C(=O)Nc1ccccn1: FALSE
CCCCCCCCN1C(=O)[C@H](CC(=O)NCC23CC4CC(CC(C4)C2)C3)C[C@@]2(C(=O)OC)CCCCC=C12: FALSE
COc1ccc(CCN2C(=O)C(C)=C(C)C2=O)cc1OC: FALSE
CN(Cc1ccc(C(F)(F)F)cc1)C(=O)[C@H]1O[C@@H](n2cnc3c(N)ncnc32)[C@H](O)[C@@H]1O: FALSE
OC(c1ccc(Cl)c(F)c1)c1ncc(-c2ccccc2Cl)[nH]1 (stereo not given): FALSE
Cc1ccccc1C1=N/C(=C/c2cccnc2)C(=O)O1: FALSE
COc1ccccc1NC(=O)C(C)OC(=O)CC1CCCC1 (stereo not given): FALSE
COc1ccc(OC(C)C(=O)Nc2cccnc2)cc1 (stereo not given): FALSE
